assay: Rat microsomal intrinsic clearance; format: in vitro ADME; conditions: second value of mouse/rat cell
CLint (rat) under 8 mL·min/g gets T, anything at or over 8 mL·min/g gets F.

INSERT INTO measurements (compound, category) VALUES
  ('Nc1nc(Nc2ccc(F)c(F)c2)sc1C(=O)CCN1CCOCC1 [Compound 64]', 'F'),
  ('Nc1nc(Nc2ccc(F)c(F)c2)sc1C(=O)CN1CCCCC1 [Compound 61]', 'T'),
  ('Nc1nc(Nc2ccc(F)c(F)c2)sc1C(=O)CN1CCCC1 [Compound 58]', 'T'),
  ('Nc1nc(Nc2ccc(F)c(F)c2)sc1C(=O)CN1CCOCC1 [Compound 62]', 'F');
